Form field: growth (one value per entry).
Tested on: TK-10 renal
Test: NCI-60 one-dose screen, 48 h (100 = growth as untreated, 0 = no growth, -100 = all killed)
Conditions: 10 µM unless noted
Compounds without any hit were thinned out: in the full panel of roughly 83,000, 20% have a hit. Activity calls are given as the source filed them. The calls were made as follows: active = growth percent below 10; inactive = the rest.

IN: Look up and report measured growth for this entry: C#CCNC(=O)[C@]1(C)CC[C@]2(C)CC[C@@H]3C(=CC[C@H]4[C@@]3(C)CC[C@H]3C(C)(C)C(=O)CC[C@]43C)[C@@H]2C1
OUT: 86.4% (inactive)

IN: Look up and report measured growth for this entry: O=C(CNCCN1CCOCC1)N1c2cccc3cccc(c23)N(C(=O)CNCCN2CCOCC2)C1c1cn(-c2ccccc2)nc1-c1cccc([N+](=O)[O-])c1
OUT: 108% (inactive)
